Kd by entry:
tested_system: T1, biotinylated human DLL3 protein expressed as a human IgG1 fusion protein (human, UniProt Q9NYJ7 27-492, limits assumed, biotinylated)
T1 sequence: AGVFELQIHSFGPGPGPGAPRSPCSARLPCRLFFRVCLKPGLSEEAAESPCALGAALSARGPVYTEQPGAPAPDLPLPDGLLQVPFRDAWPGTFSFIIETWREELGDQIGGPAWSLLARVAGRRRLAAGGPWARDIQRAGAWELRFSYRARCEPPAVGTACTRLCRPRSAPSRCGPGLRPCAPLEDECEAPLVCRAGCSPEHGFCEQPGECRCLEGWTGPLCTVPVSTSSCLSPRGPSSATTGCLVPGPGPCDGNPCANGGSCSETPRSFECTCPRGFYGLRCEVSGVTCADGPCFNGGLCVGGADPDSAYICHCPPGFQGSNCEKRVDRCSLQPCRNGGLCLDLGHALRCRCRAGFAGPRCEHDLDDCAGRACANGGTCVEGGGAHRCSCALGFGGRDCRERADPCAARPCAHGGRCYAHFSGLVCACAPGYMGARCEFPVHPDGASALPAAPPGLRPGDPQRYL
method_summary: Octet BLI, single 50 nM
# do not omit the unit; it follows the number

Query: Suppose we examine the binder 1E02 anti-DLL3 trispecific protein (other, not shown: linker 1808, anti-albumin sdAb, linker 1808, anti-CD3 fragment, His6 1819) EVQLVESGGGLVQPGGSLTLSCVASGQTSSINAMGWYRRAPGKQRELVAGISSDGSQVYADSVKGRFTISRDNAKNSVYLQMNSLRAEDTAVYYCYYFRTKSGSSMRYWGQGTLVTVSS ; what Kd value has been reported?
Result: 7 nM

Query: // next record 1G011 anti-DLL3 trispecific protein (other, not shown: linker 1808, anti-albumin sdAb, linker 1808, anti-CD3 fragment, His6 1819) EVQLVESGGGLVQPGGSLTLSCVASGSTSSINAMAWYRRAPGKQRELVAGISSDGSKVYADSVKGRFTISRDNAKNSVYLQMNSLRAEDTAVYYCYYFKTVSGSSMRYWGQGTLVTVSS
Result: 6.8 nM

Query: // next record 2D09 anti-DLL3 trispecific protein (other, not shown: linker 1808, anti-albumin sdAb, linker 1808, anti-CD3 fragment, His6 1819) EVQLVESGGGLVQPGGSLTLSCVASGTTSSINAMGWYRRAPGKQRELAAGISSDGSKVYNDSVKGRFTISRDNAKNSVYLQMNSLRAEDTAVYYCYYFRTVRGSSMRYWGQGTLVTVSS
Result: 8.2 nM

Query: // next record 3D01 anti-DLL3 trispecific protein (other, not shown: linker 1808, anti-albumin sdAb, linker 1808, anti-CD3 fragment, His6 1819) EVQLVESGGGLVQPGGSLTLSCAASGSSVSFLSMAWYRQAPGKKRELVAGISRDGSTDYIDSVKGRFTISRDNAKNSVYLQMNSLRAEDTAVYYCYAYRWITRYTYWGQGTLVTVSS
Result: 10 nM

Query: // next record 2F01 anti-DLL3 trispecific protein (other, not shown: linker 1808, anti-albumin sdAb, linker 1808, anti-CD3 fragment, His6 1819) EVQLVESGGGLVQPGGSLTLSCVASGSTSSINAMGWYRRAPGKQRELVAGISSDGSKVYSDSVKGRFTISRDNAKNSVYLQMNSLRAEDTAVYYCYYFRLVSGSSMRYWGQGTLVTVSS
Result: 9.2 nM

Data credit: patent US20240141072A1
